target: rat MCH-1 (Rattus norvegicus); assay: Radioligand binding assay at cloned rat MCH1 receptor ([3H] Compound A); set-up: host or cells: Peak rapid 293 (Peakr293) cells, transient calcium phosphate transfection, membranes; details: cloned rat MCH1 receptor, membranes from Peakr293 cells, 0.08 nM [3H] Compound A; read-out: Ki (nM) rMCH1
Sequence (P97639 whole entry): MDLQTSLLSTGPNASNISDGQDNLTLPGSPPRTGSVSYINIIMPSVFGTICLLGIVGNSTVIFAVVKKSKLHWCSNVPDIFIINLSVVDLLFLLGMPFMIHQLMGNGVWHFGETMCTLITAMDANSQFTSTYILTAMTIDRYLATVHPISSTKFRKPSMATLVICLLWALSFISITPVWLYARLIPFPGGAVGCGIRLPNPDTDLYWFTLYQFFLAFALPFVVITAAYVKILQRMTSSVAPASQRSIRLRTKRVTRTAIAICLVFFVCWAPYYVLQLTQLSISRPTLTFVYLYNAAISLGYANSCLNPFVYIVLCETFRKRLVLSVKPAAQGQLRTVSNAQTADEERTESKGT
log10(Ki) by entry:
Form field - Quantity: Ki; Unit: nM; Scale: log10

[[record]]
compound = "Cc1onc(-c2c(Cl)cccc2Cl)c1C(=O)OCCCN1CCC(c2cccc(NC(=O)C(C)C)c2)CC1 [Example 288]"
measured_property = "log10(Ki)"
measurement = 1.48


// next entry
Problem: Please give measured log10(Ki) of the following entry: CCn1c2ccccc2c2cc(CN3CCC(c4ccccc4NC(=O)C(C)C)CC3)ccc21 [Example 274]
Result: 2.93
